Consider the following compounds and their measured inhibition of growth at 10 µM readings.
# Test system: UO-31
# assay-explanation: Cytotoxicity against human UO31 cells at 10 uM after 48 hrs by coulter counter analysis
# Assay type: functional
# measurement-setup: UO-31, 48 h, read-out: GI
The reply should contain only the number, in %.

// solved cases for inhibition of growth at 10 µM follow
>>> quantitative_readout("O=C(O)c1cccnc1Sc1nc2ccc(Cl)cc2c(=O)n1Cc1ccccc1")
20.3
>>> quantitative_readout("Cc1ccc2nc(Sc3ncccc3C(=O)O)n(Cc3ccccc3)c(=O)c2c1")
20.6
>>> quantitative_readout("O=C(O)c1cccnc1Sc1nc2ccc(Cl)cc2c(=O)n1-c1ccccc1")
20.5
>>> quantitative_readout("Cc1ccc2nc(Sc3ncccc3C(=O)O)n(-c3ccccc3)c(=O)c2c1")
12.1
>>> quantitative_readout("COc1cc2nc(Sc3ncccc3C(=O)O)n(-c3ccccc3)c(=O)c2cc1OC")
12

Ask: Requested read-out inhibition of growth at 10 µM, target or system UO-31, entry `COc1cc2nc(Sc3cnc(N)s3)n(Cc3ccccc3)c(=O)c2cc1OC`
Reply: 17.4

Ask: Requested read-out inhibition of growth at 10 µM, target or system UO-31, entry `Cc1ccc2nc(Sc3cnc(N)s3)n(Cc3ccccc3)c(=O)c2c1`
Reply: 29.4

Ask: Requested read-out inhibition of growth at 10 µM, target or system UO-31, entry `COc1cc2nc(Sc3cnc(N)s3)n(-c3ccccc3)c(=O)c2cc1OC`
Reply: 22.2

Ask: Requested read-out inhibition of growth at 10 µM, target or system UO-31, entry `Cc1ccc2nc(Sc3cnc(N)s3)n(-c3ccccc3)c(=O)c2c1`
Reply: 20.7

Ask: Requested read-out inhibition of growth at 10 µM, target or system UO-31, entry `Nc1ncc(Sc2nc3ccc(Cl)cc3c(=O)n2Cc2ccccc2)s1`
Reply: 14.8

Ask: Requested read-out inhibition of growth at 10 µM, target or system UO-31, entry `COc1cc2nc(Sc3ncccc3C(=O)O)n(Cc3ccccc3)c(=O)c2cc1OC`
Reply: 14.6

---

# System: SR
# assay-explanation: Cytotoxicity against human SR cells at 10 uM after 48 hrs by coulter counter analysis
# Assay type: functional
# measurement-setup: read-out: GI
endpoint-name: inhibition of growth at 10 µM (%)
The reply should contain only the number, in %.

>>> quantitative_readout("Cc1ccc2nc(Sc3ncccc3C(=O)O)n(Cc3ccccc3)c(=O)c2c1")
14.4

API: the following record is the query input.
Ask: Record request: inhibition of growth at 10 µM value, item `O=C(O)c1cccnc1Sc1nc2ccc(Cl)cc2c(=O)n1Cc1ccccc1`
Reply: 32.8

---

# System: Staphylococcus aureus
# assay-explanation: Antimicrobial activity against Staphylococcus aureus at 200 ug after 24 hrs by agar disc diffusion method
# Format: functional
# measurement-setup: read-out: DIZ
endpoint-name: zone of inhibition at 200 µg/disc (mm)
The reply should contain only the number, in mm.

// solved cases for zone of inhibition at 200 µg/disc follow
>>> quantitative_readout("CCOC(=O)c1nc(N)sc1Sc1nc2ccc(C)cc2c(=O)n1-c1ccccc1")
24
>>> quantitative_readout("Nc1ncc(Sc2nc3ccc(Cl)cc3c(=O)n2Cc2ccccc2)s1")
16
>>> quantitative_readout("COc1cc2nc(Sc3ncccc3C(=O)O)n(-c3ccccc3)c(=O)c2cc1OC")
20
>>> quantitative_readout("COc1cc2nc(Sc3ncccc3C(=O)O)n(Cc3ccccc3)c(=O)c2cc1OC")
22

Ask: Record request: zone of inhibition at 200 µg/disc value, item `Cc1ccc2nc(Sc3ncccc3C(=O)O)n(Cc3ccccc3)c(=O)c2c1`
Reply: 15

Ask: Record request: zone of inhibition at 200 µg/disc value, item `Nc1ncc(Sc2nc3ccc(Cl)cc3c(=O)n2-c2ccccc2)s1`
Reply: 18

Ask: Record request: zone of inhibition at 200 µg/disc value, item `CCOC(=O)c1nc(N)sc1Sc1nc2ccc(C)cc2c(=O)n1Cc1ccccc1`
Reply: 24

Ask: Record request: zone of inhibition at 200 µg/disc value, item `COc1cc2nc(Sc3cc([N+](=O)[O-])ccc3C(=O)O)n(-c3ccccc3)c(=O)c2cc1OC`
Reply: 18

Ask: Record request: zone of inhibition at 200 µg/disc value, item `CCOC(=O)c1nc(N)sc1Sc1nc2cc(OC)c(OC)cc2c(=O)n1-c1ccccc1`
Reply: 8

Ask: Record request: zone of inhibition at 200 µg/disc value, item `CCOC(=O)c1nc(N)sc1Sc1nc2cc(OC)c(OC)cc2c(=O)n1Cc1ccccc1`
Reply: 18

Source listed as ChEMBL document CHEMBL2375290.
